- System: CDK4-cyclinD3
- Condition context: concentration: 1 μM, replicates: in singlicate; n = 1;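 further: KINOMEscan kinase panel screen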
Observable: %Inh

>  <Smi>
O=C(Nc1n[nH]c2nc(-c3ccccc3)c(Cl)cc12)C1CC1

>  <Subject of test>
CDK4-cyclinD3

>  <Measured result>
0%

$$$$
>  <Smi>
COc1ccc(-c2cc3c(C)nc(N)nc3n([C@H]3CC[C@H](O)CC3)c2=O)cn1

>  <Subject of test>
CDK4-cyclinD3

>  <Measured result>
0%

$$$$

Let us move to another entry and its %Inh.
Ask: Recall the recorded %Inh for Nc1ncnc2c1ncn2-c1cccc2ccccc12 with CDK4-cyclinD3 and state it.
Result: 0%

====

Known %Inh of a selection of molecules
- Tested on: S6K1
- Condition context: concentration: 1 μM, replicates: in singlicate; n = 1
Give the quantity in %, number only.

See these solved cases before continuing.
>  <Molecule>
COc1cccc(-n2cnc3c(N)ncnc32)c1 [SKF-97416]

>  <Subject of test>
S6K1

>  <%Inh [%]>
1

$$$$
>  <Molecule>
OCCCNc1nccc(-c2c(-c3cccc(C(F)(F)F)c3)nn3cc(C(F)(F)F)ccc23)n1 [GW630813]

>  <Subject of test>
S6K1

>  <%Inh [%]>
1

$$$$
>  <Molecule>
COc1cc2ncn(-c3cc(OCCCc4ccccc4)c(C(N)=O)s3)c2cc1OC [GSK205189]

>  <Subject of test>
S6K1

>  <%Inh [%]>
0

$$$$
>  <Molecule>
CCS(=O)(=O)c1ccc(OC)c(Nc2ncc(-c3ccc(F)cc3)o2)c1.Cl [GW591947]

>  <Subject of test>
S6K1

>  <%Inh [%]>
0

$$$$
>  <Molecule>
O=C(NCCNc1ccnc(Nc2ccc(F)cc2)n1)Nc1ccc2c(c1)OCO2 [GSK1379882]

>  <Subject of test>
S6K1

>  <%Inh [%]>
0

$$$$
>  <Molecule>
COc1ccc(Nc2nccc(N3CCC(NS(=O)(=O)c4ccc(NC(C)=O)cc4)C3)n2)cc1 (stereo not drawn) [GSK1379729]

>  <Subject of test>
S6K1

>  <%Inh [%]>
0

$$$$

Ask: Would you kindly share the measured %Inh for CN1C(=O)C(Nc2ccccc2)=C(c2ccccc2)C1=O [SB-300079] ?
Result: 0

Ask: Would you kindly share the measured %Inh for Nc1n[nH]c2nnc(-c3ccccc3)c(-c3ccccc3)c12 [GW554060] ?
Result: 0

====

- Tested on: MLK1
- Construct: gene MAP3K9
- Condition context: concentration: 1 μM, replicates: in singlicate; n = 1
Observable: %Inh (%)
Give the quantity in %, number only.

Ask: Would you kindly share the measured %Inh for O=C(Nc1n[nH]c2nc(-c3ccccc3)c(Br)cc12)C1CC1 ?
Result: 0

Ask: Would you kindly share the measured %Inh for Cc1ccc(-c2ccc3c(ccc4sc5c(c43)NC[C@@H](C)N=C5N(C)C)n2)cn1 ?
Result: 0

Ask: Would you kindly share the measured %Inh for O=C(NCc1cccs1)c1cc(C(=O)c2c(Cl)cccc2Cl)c[nH]1 ?
Result: 10

Ask: Would you kindly share the measured %Inh for Fc1cccc(CSc2nnc(-c3ccc4c(c3)CCO4)o2)c1 ?
Result: 0

Ask: Would you kindly share the measured %Inh for O=C(Nc1n[nH]c2cc(-c3ccccc3F)ccc12)C1CC1 ?
Result: 0

====

- Tested on: CDK8
- Condition context: concentration: 1 μM, replicates: in singlicate; n = 1
Known %Inh of a selection of compounds
Give me the value, and tack the unit on after it.

>  <Compound>
CCC(=O)c1c(-c2ccccc2)c2cc(Cl)ccc2c(=O)n1Cc1cc(S(C)(=O)=O)n(CC(F)F)n1

>  <Subject of test>
CDK8

>  <%Inh>
0%

$$$$
>  <Compound>
CN1C(=O)C(Nc2cc(Cl)c(O)c(Cl)c2)=C(c2ccc(Cl)cc2)C1=O [SB-404321]

>  <Subject of test>
CDK8

>  <%Inh>
41%

$$$$
>  <Compound>
Cc1nnc(-c2ccc(C)c(-c3ccc(C(=O)O)cc3)c2)o1 [GW608005]

>  <Subject of test>
CDK8

>  <%Inh>
21%

$$$$

Ask: Would you kindly share the measured %Inh for Nc1nc(N)c2nc(-c3ccccc3)[nH]c2n1 [SKF-12778] ?
Result: 23%

Ask: Would you kindly share the measured %Inh for COc1cc(Nc2nccc(N3CCC(NC(=O)C(C)c4ccc(Cl)cc4)C3)n2)cc(OC)c1OC (stereo not drawn) [GSK1379757] ?
Result: 22%

Ask: Would you kindly share the measured %Inh for COc1cc2nccc(Nc3cccc(Oc4ccccc4)c3)c2cc1OC.Cl [GW284543] ?
Result: 37%

Ask: Would you kindly share the measured %Inh for O=C(NCc1cccs1)c1cc(C(=O)c2c(Cl)cccc2Cl)c[nH]1 [GW823670] ?
Result: 16%

Ask: Would you kindly share the measured %Inh for CCCC(=O)Nc1n[nH]c2ncc(-c3cccc4ccccc34)cc12 [SB-642057] ?
Result: 7%

Ask: Would you kindly share the measured %Inh for Cl.NS(=O)(=O)c1cccc(Nc2cc(-c3ccc(F)cc3)n[nH]2)c1 [GW824645] ?
Result: 0%

Ask: Would you kindly share the measured %Inh for COc1ccc(-c2cc3c(C)nc(N)nc3n([C@H]3CC[C@H](OCCO)CC3)c2=O)cn1 ?
Result: 0%

Ask: Would you kindly share the measured %Inh for Cl.c1ccc(Cn2cnc3cc(Nc4ncnc5ccccc45)ccc32)cc1 [GW272142] ?
Result: 21%

Ask: Would you kindly share the measured %Inh for COc1ccc(Nc2nccc(N3CCC(NS(=O)(=O)c4ccc(NC(C)=O)cc4)C3)n2)cc1 (stereo not drawn) [GSK1379729] ?
Result: 35%

====

- Test system: PRKD2
- Condition context: concentration: 1 μM, replicates: in singlicate; n = 1
Binary call on %Inh with cut-off 6%: strictly below means y, and equality or higher means n.

Use the examples below as a reference point.
>  <Molecule>
Cc1ccccc1COc1cc(-n2cnc3cc(Cl)ccc32)sc1C(N)=O [GW813349]

>  <Label class>
y

$$$$
>  <Molecule>
O=C(Nc1n[nH]c2cc(-c3ccccc3F)ccc12)C1CC1 [SB-733371]

>  <Label class>
y

$$$$
>  <Molecule>
COc1cc2ncn(-c3cc(OCc4ccncc4)c(C(N)=O)s3)c2cc1OC [GSK336313]

>  <Label class>
y

$$$$
>  <Molecule>
Nc1n[nH]c2ncc(-c3ccccc3)cc12 [SB-517081]

>  <Label class>
y

$$$$
>  <Molecule>
O=C1NC(=O)C(c2ccccc2)=C1Nc1cccc(O)c1 [SB-390534]

>  <Label class>
y

$$$$

Ask: Please indicate whether the reported %Inh of Cc1cc(Nc2nc(-c3cccc(C)n3)nc3ccccc23)ccn1 [GW872411] is strictly below 6%.
Result: n

Ask: Please indicate whether the reported %Inh of COc1ccc(CNC(=O)NC2CCN(c3ccnc(Nc4ccc(F)cc4)n3)C2)cc1 (stereo not drawn) [GSK1379706] is strictly below 6%.
Result: n

Ask: Please indicate whether the reported %Inh of CCC(=O)c1c(-c2ccccc2)c2cc(Cl)ccc2c(=O)n1Cc1cc(S(C)(=O)=O)n(CC(N)=O)n1 is strictly below 6%.
Result: y

====

- Tested on: SIK2
- Condition context: concentration: 1 μM, replicates: in singlicate; n = 1
Known %Inh of a selection of molecules
Give me the value, and tack the unit on after it.

Ask: Would you kindly share the measured %Inh for COc1cccc(C2=C(N(C)c3ccccc3)C(=O)NC2=O)c1 ?
Result: 0%

====

- Tested on: SNARK
- Construct: gene NUAK2
- Condition context: concentration: 1 μM, replicates: in singlicate; n = 1
Observable: %Inh (%)
Give the quantity in %, number only.

>  <Compound>
COc1cc2ncn(-c3cc(OCc4ccc(S(C)(=O)=O)cc4)c(C(N)=O)s3)c2cc1OC [GW869979]

>  <Subject of test>
SNARK

>  <Unit label>
%

>  <%Inh>
15

$$$$
>  <Compound>
Nc1nccc2scc(-c3ccc4c(c3)CCN4C(=O)Cc3ccccc3)c12 [GSK2576924]

>  <Subject of test>
SNARK

>  <Unit label>
%

>  <%Inh>
16

$$$$
>  <Compound>
COC(=O)c1c(-c2ccccc2)c2cc(Br)ccc2c(=O)n1Cc1ccc(S(C)(=O)=O)cc1

>  <Subject of test>
SNARK

>  <Unit label>
%

>  <%Inh>
20

$$$$
>  <Compound>
Cc1cccc(-c2nc(Nc3ccc4c(cnn4C)c3)c3ccccc3n2)n1 [GW876731]

>  <Subject of test>
SNARK

>  <Unit label>
%

>  <%Inh>
21

$$$$
>  <Compound>
Cc1cccc(-c2cc(-c3c[nH]nc3-c3ccccn3)ccn2)c1 [GW679395]

>  <Subject of test>
SNARK

>  <Unit label>
%

>  <%Inh>
0

$$$$

Ask: Would you kindly share the measured %Inh for COc1cc(Nc2nccc(N3CCC(NC(=O)C(C)c4ccc(Cl)cc4)C3)n2)cc(OC)c1OC (stereo not drawn) [GSK1379757] ?
Result: 19

Ask: Would you kindly share the measured %Inh for COc1cc(OC)cc(-c2cc3cnc(N)nc3nc2NC(=O)NC(C)(C)C)c1 ?
Result: 0

Ask: Would you kindly share the measured %Inh for COc1ccc(-c2cc3c(C)nc(N)nc3n([C@H]3CC[C@H](OCCO)CC3)c2=O)cn1 ?
Result: 0

Ask: Would you kindly share the measured %Inh for CCc1ccc(-c2ccc3c(c2)-c2nn(C)cc2S(=O)(=O)N3C)cc1 ?
Result: 0
